The reported measurements were obtained from patent US20100048543A1.

# target-or-system: Tie2 receptor (Homo sapiens, UniProt Q02763)
# Construct: one can use natural cell lines or primary cells which are known to express the receptor of choice; endogenous in cells; host or cells: EA.hy926/B3 cells (HUVEC named as an alternative)
# Sequence (Q02763 23-1124): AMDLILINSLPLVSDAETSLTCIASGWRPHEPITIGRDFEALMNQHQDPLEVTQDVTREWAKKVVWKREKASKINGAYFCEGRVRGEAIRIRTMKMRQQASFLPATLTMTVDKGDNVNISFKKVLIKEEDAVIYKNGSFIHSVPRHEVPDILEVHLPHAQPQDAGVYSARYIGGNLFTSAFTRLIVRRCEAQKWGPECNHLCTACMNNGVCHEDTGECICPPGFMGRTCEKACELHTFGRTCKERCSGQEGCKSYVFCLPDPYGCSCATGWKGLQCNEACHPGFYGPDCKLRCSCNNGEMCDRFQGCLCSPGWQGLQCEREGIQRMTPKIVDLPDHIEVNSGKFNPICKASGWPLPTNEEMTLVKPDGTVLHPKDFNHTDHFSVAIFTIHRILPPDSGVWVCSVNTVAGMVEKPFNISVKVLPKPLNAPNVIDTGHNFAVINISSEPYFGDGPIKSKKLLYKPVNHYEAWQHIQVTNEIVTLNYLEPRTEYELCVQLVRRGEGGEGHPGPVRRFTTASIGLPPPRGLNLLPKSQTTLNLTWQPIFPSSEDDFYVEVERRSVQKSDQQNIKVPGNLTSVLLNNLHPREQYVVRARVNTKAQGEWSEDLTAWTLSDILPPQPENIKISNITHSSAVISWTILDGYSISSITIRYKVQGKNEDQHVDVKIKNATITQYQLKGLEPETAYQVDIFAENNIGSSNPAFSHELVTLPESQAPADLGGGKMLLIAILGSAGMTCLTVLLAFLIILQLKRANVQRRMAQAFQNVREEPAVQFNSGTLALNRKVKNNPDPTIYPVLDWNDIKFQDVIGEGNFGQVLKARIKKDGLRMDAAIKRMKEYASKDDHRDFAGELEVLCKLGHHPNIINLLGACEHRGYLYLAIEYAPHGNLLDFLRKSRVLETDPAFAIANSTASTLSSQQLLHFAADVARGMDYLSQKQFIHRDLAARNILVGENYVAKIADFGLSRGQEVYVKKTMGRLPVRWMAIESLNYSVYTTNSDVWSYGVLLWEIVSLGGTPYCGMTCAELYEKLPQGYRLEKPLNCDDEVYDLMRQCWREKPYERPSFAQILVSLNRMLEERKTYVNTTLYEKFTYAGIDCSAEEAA
# experiment-summary: Cellular Tie2 autophosphorylation assay, Test (b)
# Type: cell-based
# settings: Ang1 ligand stimulated whole cells (e.g. EA.hy926/B3), immunoprecipitation/western blot; read-out: IC50 (μM) Test (b): Inhibition of autophosphorylation of Tie2 receptor tyrosine kinase
observed-property: log10 of IC50 (log10 of the value in µM)

molecule: Nc1ncnc(N)c1C#Cc1cccc(NC(=O)NCc2cccnc2)c1 [Example 45]
observed-property: log10 of IC50
test-result: -0.70
--
molecule: Nc1ncc(C#Cc2cccc(NC(=O)NC(CCO)c3ccccc3)c2)cn1 (stereo not drawn) [Example 12]
observed-property: log10 of IC50
test-result: 0.11
--
molecule: Nc1ncnc(N)c1C#Cc1cccc(NC(=O)NCC2CCCO2)c1 (stereo not drawn) [Example 47]
observed-property: log10 of IC50
test-result: 0.28
--
molecule: Cc1ccc(CNC(=O)Nc2cccc(C#Cc3cnc(N)nc3)c2)o1 [Example 6]
observed-property: log10 of IC50
test-result: 0.23
--
molecule: Cc1conc1CNC(=O)Nc1cccc(C#Cc2c(N)ncnc2N)c1 [Example 50]
observed-property: log10 of IC50
test-result: 0.56
--
molecule: Cc1ccc(CNC(=O)Nc2cccc(C#Cc3cnc(NCCCN4CCCCC4)nc3)c2)o1 [Example 14]
observed-property: log10 of IC50
test-result: -0.42

====

# target-or-system: Tie2 receptor tyrosine kinase (Homo sapiens)
# Construct: consist of only the intracellular portion C-terminal portion of the respective receptor, within which is found the kinase domain; made in house; host or cells: baculovirus/Sf21 insect cells (or alternative equivalent), used as cleared lysate
# Sequence (Q02763 770-1124 limits assumed): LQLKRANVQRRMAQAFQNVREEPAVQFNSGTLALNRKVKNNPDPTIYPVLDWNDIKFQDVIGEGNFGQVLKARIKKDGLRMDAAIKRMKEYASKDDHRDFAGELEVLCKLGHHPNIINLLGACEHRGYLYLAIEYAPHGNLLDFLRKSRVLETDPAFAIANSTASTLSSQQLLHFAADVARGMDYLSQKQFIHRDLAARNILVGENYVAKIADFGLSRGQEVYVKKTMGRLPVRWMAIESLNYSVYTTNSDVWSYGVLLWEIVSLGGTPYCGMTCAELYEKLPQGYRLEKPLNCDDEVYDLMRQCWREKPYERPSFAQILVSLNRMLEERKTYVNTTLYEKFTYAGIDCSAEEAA
# experiment-summary: In vitro receptor tyrosine kinase inhibition assay, Test (a) (ELISA)
# Type: biochemical
# settings: recombinant human Tie2 kinase domain lysate, ATP 5 micromolar (or Km)
Param label: returns met when IC50 < 20 µM, returns not met otherwise, including exact equality.

compound: Nc1ncc(C#Cc2cccc(NC(=O)NC(CCO)c3ccccc3)c2)cn1 (stereo not drawn) [Example 12]
class: not met

compound: Cc1conc1CNC(=O)Nc1cccc(C#Cc2c(N)ncnc2N)c1 [Example 50]
class: met

compound: Nc1ncnc(N)c1C#Cc1cccc(NC(=O)NCc2cccnc2)c1 [Example 45]
class: met

compound: Nc1ncnc(N)c1C#Cc1cccc(NC(=O)NCC2CCCO2)c1 (stereo not drawn) [Example 47]
class: met
